B1: SCNN1D (parent)
chain: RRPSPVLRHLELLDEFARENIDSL

Variants of: B1
Assay: protein stability index of a GFP-peptide fusion (GPS, HEK-293T) (PSI 1-6); higher = more stable;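 note: lentivirally expressed fusions sorted by FACS into six bins by GFP to DsRed ratio, PSI derived from sequencing read proportions per bin multiplied by bin number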
Conditions: c terminus: a fixed tail appended
Rule: satisfied for protein stability index not less than 3, not satisfied for anything less.

Previously resolved entries follow.
I21P    satisfied
I21H    satisfied
F16G    satisfied

[Q] Tell me whether protein stability index is at least 3 here: S4T
[A] satisfied
